The reported numbers originate from ChEMBL document CHEMBL5291721.

- tested on: Rod cGMP-specific 3',5'-cyclic phosphodiesterase subunit alpha (Homo sapiens, UniProt P16499); also: assay procedure not described here
- Sequence (P16499 whole entry): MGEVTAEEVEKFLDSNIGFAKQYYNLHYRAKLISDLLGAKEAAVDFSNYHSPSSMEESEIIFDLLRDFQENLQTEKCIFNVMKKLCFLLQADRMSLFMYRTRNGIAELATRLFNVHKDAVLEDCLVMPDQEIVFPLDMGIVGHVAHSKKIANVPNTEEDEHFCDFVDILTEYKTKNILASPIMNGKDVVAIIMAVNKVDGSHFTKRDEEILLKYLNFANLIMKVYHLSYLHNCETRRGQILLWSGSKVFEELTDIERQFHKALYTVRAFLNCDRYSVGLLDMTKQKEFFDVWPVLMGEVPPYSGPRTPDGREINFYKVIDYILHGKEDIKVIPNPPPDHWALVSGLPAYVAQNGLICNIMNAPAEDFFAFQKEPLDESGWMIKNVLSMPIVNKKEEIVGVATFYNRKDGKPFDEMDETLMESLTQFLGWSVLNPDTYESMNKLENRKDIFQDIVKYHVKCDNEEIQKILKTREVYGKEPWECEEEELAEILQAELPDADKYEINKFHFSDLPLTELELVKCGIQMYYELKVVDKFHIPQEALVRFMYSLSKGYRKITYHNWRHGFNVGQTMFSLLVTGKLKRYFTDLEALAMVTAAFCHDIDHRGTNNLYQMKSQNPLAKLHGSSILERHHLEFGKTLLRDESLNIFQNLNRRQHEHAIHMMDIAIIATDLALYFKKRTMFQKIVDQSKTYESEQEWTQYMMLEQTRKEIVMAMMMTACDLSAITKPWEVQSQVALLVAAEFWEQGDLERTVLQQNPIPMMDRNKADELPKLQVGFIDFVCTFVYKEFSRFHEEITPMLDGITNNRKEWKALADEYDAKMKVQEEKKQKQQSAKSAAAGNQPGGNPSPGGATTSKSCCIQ
- Format: functional
assay metric: AC50

For orientation, consider the following solved cases.
{"smiles str": "CCCCc1ncc(/C=C(\\Cc2cccs2)C(=O)O)n1Cc1ccc(C(=O)O)cc1", "AC50": "> 10 µM"}
{"smiles str": "N#Cc1ccc([C@H]2CCc3cncn32)c(F)c1", "AC50": "> 10 µM"}

Give the reported AC50 for this molecule. `Cc1ccc(-c2cc(C(F)(F)F)nn2-c2ccc(S(N)(=O)=O)cc2)cc1`
> 10 µM

###

Parameter: AC50. Scope: all listed entries.
- tested on: Histamine H3 receptor (Homo sapiens); also: assay procedure not described here
- Sequence (Q9Y5N1 whole entry): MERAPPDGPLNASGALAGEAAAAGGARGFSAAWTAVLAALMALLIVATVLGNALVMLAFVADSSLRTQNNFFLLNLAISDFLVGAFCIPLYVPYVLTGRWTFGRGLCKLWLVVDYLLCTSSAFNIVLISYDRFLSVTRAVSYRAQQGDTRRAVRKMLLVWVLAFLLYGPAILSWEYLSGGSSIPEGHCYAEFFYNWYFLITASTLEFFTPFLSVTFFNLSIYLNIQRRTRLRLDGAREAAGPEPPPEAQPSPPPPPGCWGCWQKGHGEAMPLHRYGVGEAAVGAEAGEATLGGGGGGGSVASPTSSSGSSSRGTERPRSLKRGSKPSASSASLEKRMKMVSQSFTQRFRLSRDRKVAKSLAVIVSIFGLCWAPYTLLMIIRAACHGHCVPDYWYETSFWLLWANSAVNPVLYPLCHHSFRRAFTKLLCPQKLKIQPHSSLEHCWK

{"compound": "NS(=O)(=O)Cc1noc2ccccc12 [ZONISAMIDE]", "AC50": "> 10 µM"}

Report the value of AC50 obtained on Histamine H3 receptor (Homo sapiens) for Cc1cn([C@H]2C=C[C@@H](CO)O2)c(=O)[nH]c1=O [STAVUDINE] .
> 30 µM

Give AC50 only, for C=CCN1CCCC1CNC(=O)c1cc(S(N)(=O)=O)cc(OC)c1OC (stereo unspecified) [VERALIPRIDE] , using Histamine H3 receptor (Homo sapiens) data.
23 µM

Give AC50; test system Histamine H3 receptor (Homo sapiens); compound COc1cc2nc(N(C)CCCNC(=O)C3CCCO3)nc(N)c2cc1OC (stereo unspecified) [ALFUZOSIN]; also: assay procedure not described here
> 30 µM

Name the recorded AC50 of Cc1cc(O)c(C(=O)N[C@@H](C(=O)N[C@@H]2C(=O)N3C(C(=O)O)=C(CSc4nnnn4C)CS[C@H]23)c2ccc(O)cc2)cn1 [CEFPIRAMIDE] , assay system Histamine H3 receptor (Homo sapiens). Also: assay procedure not described here.
> 30 µM

Give measured AC50 for CN(C)CCC=C1c2ccccc2C=Cc2ccccc21 [CYCLOBENZAPRINE] (Histamine H3 receptor (Homo sapiens)).
> 10 µM

Report AC50 on Histamine H3 receptor (Homo sapiens) for this entry: CC(=O)O[C@H]1C[C@@H]2CC[C@@H]3[C@H](CC[C@@]4(C)[C@H]3C[C@H]([N+]3(C)CCCCC3)[C@@H]4OC(C)=O)[C@@]2(C)C[C@@H]1N1CCCCC1 [VECURONIUM]
18 µM

Write down the reported AC50 (system: Histamine H3 receptor (Homo sapiens)) of COc1ccc2c3c1O[C@H]1C(=O)CC[C@@]4(O)[C@@H](C2)N(C)CC[C@]314 [OXYCODONE]; also: assay procedure not described here
> 30 µM

Give measured AC50 for COC(=O)C1=C(C)NC(C)=C(C(=O)OC2CCCN(Cc3ccccc3)C2)C1c1cccc([N+](=O)[O-])c1 (stereo unspecified) [BENIDIPINE] (Histamine H3 receptor (Homo sapiens)).
> 30 µM

# return AC50 for O=C(O)C1=C(CSc2nnnn2CS(=O)(=O)O)CS[C@@H]2[C@H](NC(=O)[C@H](O)c3ccccc3)C(=O)N12 [CEFONICID] , test system: Histamine H3 receptor (Homo sapiens); also: assay procedure not described here
> 30 µM

Name the recorded AC50 of `CCCCN1C[C@H](O)[C@@H](O)[C@H](O)[C@H]1CO` , assay system Histamine H3 receptor (Homo sapiens). Also: assay procedure not described here.
> 30 µM

Supply AC50 measured with Histamine H3 receptor (Homo sapiens) for C[C@@H](O)[C@H]1C(=O)N2C(C(=O)O)=C(S[C@@H]3CN[C@H](C(=O)N(C)C)C3)[C@H](C)[C@H]12 [MEROPENEM] .
> 300 µM

# return AC50 for CC(C)OC(=O)CCC/C=C\C[C@@H]1[C@@H](CC[C@@H](O)CCc2ccccc2)[C@H](O)C[C@@H]1O [LATANOPROST] , test system: Histamine H3 receptor (Homo sapiens); also: assay procedure not described here
> 30 µM

Give the observed AC50 of COc1ccccc1OCCNCC(O)c1ccc(C)c(S(N)(=O)=O)c1 (stereo unspecified) [AMOSULALOL] for Histamine H3 receptor (Homo sapiens).
> 30 µM

Jot down AC50 (Histamine H3 receptor (Homo sapiens)) of CC1(C)NC(=O)N(c2ccc([N+](=O)[O-])c(C(F)(F)F)c2)C1=O [NILUTAMIDE] .
> 30 µM

# lookup: Histamine H3 receptor (Homo sapiens) AC50, key = N[C@@H]1[C@H]2CN(c3nc4c(cc3F)c(=O)c(C(=O)O)cn4-c3ccc(F)cc3F)C[C@@H]12 [TROVAFLOXACIN]
> 30 µM
